Tested On: Heat shock protein HSP 90-alpha (Homo sapiens, UniProt P07900)
Experiment: Inhibition of HSP90-alpha (unknown origin) expressed in Escherichia coli BL21 assessed as reduction in ATPase activity in presence of PEP, NADH and ATP by pyruvate kinase/lactic dehydrogenase based coupled enzyme assay
Field: IC50. Provide a value for each of the molecules that follow.
Dear colleague, please return just the value in µM, with no unit written.

Challenge: Look up and state reported IC50 for CC(C)(C)c1ccc(Cn2cc(-c3cc(O)c(O)c(O)c3)nn2)cc1
Response given: 0.16

Challenge: Look up and state reported IC50 for COc1ccc(-c2cn(Cc3ccc(C(C)(C)C)cc3)nn2)c([N+](=O)[O-])c1
Response given: 5

Challenge: Look up and state reported IC50 for CC(C)(C)c1ccc(Cn2cc(-c3ccc(O)cc3N)nn2)cc1
Response given: 13.7

====

Record type: Kd measurement. Applies to: Heat shock protein HSP 90-beta (Homo sapiens, UniProt P08238)
Dear colleague, please return just the value in µM, with no unit written.

Challenge: System Heat shock protein HSP 90-beta (Homo sapiens, UniProt P08238). Read-out Kd. Item COc1ccc(-c2cn(Cc3cc(C(F)(F)F)cc(C(F)(F)F)c3)nn2)cc1 . Report value.
Response given: 7

Challenge: System Heat shock protein HSP 90-beta (Homo sapiens, UniProt P08238). Read-out Kd. Item COc1ccc(-c2cn(Cc3ccc(C(C)(C)C)cc3)nn2)cc1 . Report value.
Response given: 4.8

====

System: HeLa
Experiment: Cytotoxicity in human HeLa cells assessed as reduction in cell viability incubated for 48 hrs by MTT assay
Format: cell-based
Readout Label: pIC50
In textbook form, pIC50 equals minus log to base ten of the concentration in mol/L.

Challenge: Look up and state reported pIC50 for COc1ccc(-c2cn(Cc3cc(C(F)(F)F)cc(C(F)(F)F)c3)nn2)cc1
Response given: 4.65

Challenge: Look up and state reported pIC50 for C=CCNC1=C2C[C@@H](C)C[C@H](OC)[C@H](O)[C@@H](C)/C=C(\C)[C@H](OC(N)=O)[C@@H](OC)/C=C\C=C(/C)C(=O)NC(=CC1=O)C2=O
Response given: 4.71

====

Experiment: Half life in Kunming mouse at 2 mg/kg, iv measured up to 6 hrs by HPLC analysis
Format: ADME, organism-based
Condition Notes: in vivo
Readout Label: half-life (h)
Dear colleague, please return just the value in h, with no unit written.

Challenge: Look up and state reported half-life for CC(C)(C)c1ccc(Cn2cc(-c3cc(O)c(O)c(O)c3)nn2)cc1
Response given: 1.1

====

Tested On: UniProt:P08238
Experiment: Inhibition of HSP90-beta (unknown origin) expressed in Escherichia coli BL21 assessed as reduction in ATPase activity in presence of PEP, NADH and ATP by pyruvate kinase/lactic dehydrogenase based coupled enzyme assay
Readout Label: IC50

Challenge: System UniProt:P08238. Read-out IC50. Item CC(C)(C)c1ccc(Cn2cc(-c3ccc(O)cc3N)nn2)cc1 . Report value.
Response given: 14.6 µM

Challenge: System UniProt:P08238. Read-out IC50. Item COc1ccc(-c2cn(Cc3cc(C(F)(F)F)cc(C(F)(F)F)c3)nn2)cc1 . Report value.
Response given: 9.8 µM

Challenge: System UniProt:P08238. Read-out IC50. Item COc1ccc(-c2cn(Cc3ccc(C(C)(C)C)cc3)nn2)cc1 . Report value.
Response given: 5.6 µM

Challenge: System UniProt:P08238. Read-out IC50. Item COc1ccc(-c2cn(Cc3ccc(C(C)(C)C)cc3)nn2)c([N+](=O)[O-])c1 . Report value.
Response given: 5 µM

Challenge: System UniProt:P08238. Read-out IC50. Item CC(C)(C)c1ccc(Cn2cc(-c3ccc(O)cc3)nn2)c(O)c1 . Report value.
Response given: > 40 µM

====

Experiment: Binding affinity to HSP90-alpha L107G mutant (unknown origin) expressed in Escherichia coli BL21 by SPR assay
Design: species or system Homo sapiens
Readout Label: Kd (µM)
Dear colleague, please return just the value in µM, with no unit written.

Challenge: Look up and state reported Kd for CC(C)(C)c1ccc(Cn2cc(-c3cc(O)c(O)c(O)c3)nn2)cc1
Response given: 29.1

====

Field: IC50. Provide a value for each of the compounds that follow.
Tested on: CNE-2
Experiment: Cytotoxicity in human CNE-2 cells assessed as reduction in cell viability incubated for 48 hrs by MTT assay
Assay type: cell-based
Condition Notes: CNE-2, 48 h
Dear colleague, please return just the value in µM, with no unit written.

Challenge: System CNE-2. Read-out IC50. Item COc1cc(-c2cn(Cc3ccc(C(C)(C)C)cc3)nn2)cc(OC)c1OC . Report value.
Response given: 1.8

Challenge: System CNE-2. Read-out IC50. Item CC(C)(C)c1ccc(Cn2cc(-c3ccc(O)cc3)nn2)cc1 . Report value.
Response given: 5.6

Challenge: System CNE-2. Read-out IC50. Item COc1ccc(-c2cn(Cc3ccc(C(C)(C)C)cc3)nn2)c([N+](=O)[O-])c1 . Report value.
Response given: 1.6

From: ChEMBL document CHEMBL4706684
